Source: patent US20260356856A1

# System name: KRas-mediated phosphorylation of ERK in A549 cells (Homo sapiens, UniProt P01116, G12S)
# Construct: pERK HTRF read-out
# Sequence (P01116 1-188 isoform P01116-2 G12S): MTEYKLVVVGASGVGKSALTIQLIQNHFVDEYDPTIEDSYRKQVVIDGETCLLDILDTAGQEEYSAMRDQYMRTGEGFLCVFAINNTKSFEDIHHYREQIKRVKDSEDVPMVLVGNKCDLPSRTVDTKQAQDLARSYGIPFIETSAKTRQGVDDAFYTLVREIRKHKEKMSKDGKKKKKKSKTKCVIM
# Experiment: Inhibition of KRas-mediated phosphorylation of ERK (HTRF), A549 cells
# Format: cell-based
# Test context: HTRF pERK, 3 h incubation
Readout: IC50 (nM)

1 = CCc1c(F)ccc2cc(O)cc(-c3ncc4c(N5CC[C@H]6[C@@H](C5)[C@H]6C(=O)N(C)C(C)=O)nc(OC[C@@]56CCCN5C[C@H](F)C6)nc4c3F)c12
2 = Cc1ccn(C(=O)C2CCN(c3nc(OC[C@@]45CCCN4C[C@H](F)C5)nc4c(F)c(-c5ccc(F)c6sc(N)c(C#N)c56)c(Cl)cc34)C2)n1 (some centres unmarked)
3 = CCc1c(F)ccc2cc(O)cc(-c3ncc4c(N(C)CCC(C)C(=O)N(C)C(C)=O)nc(OC[C@@]56CCCN5C[C@H](F)C6)nc4c3F)c12 (some centres unmarked)
4 = C=CC1(C(=O)n2ccc(C)n2)CCN(c2nc(OC[C@@]34CCCN3C[C@H](F)C4)nc3c(F)c(-c4cc(O)cc5ccc(F)c(CC)c45)ncc23)C1 (some centres unmarked)
5 = CN(CCCC(=O)Oc1ccc(F)cc1)c1nc(OC[C@@]23CCCN2C[C@H](F)C3)nc2c(F)c(-c3ccc(F)c4sc(N)c(C#N)c34)c(Cl)cc12
Q) Highest IC50 first, then in falling order down to the smallest. Note for the reader: the ranking is given by listing the labels in the order requested.
A) 4, 5, 1, 2, 3
(4: 2070 nM, 5: 462 nM, 1: 292 nM, 2: 46 nM, 3: 7 nM)

* * *

# System name: KRas-mediated phosphorylation of ERK in H358 cells (Homo sapiens, UniProt P01116, G12C)
# Construct: pERK HTRF read-out
# Sequence (P01116 1-188 isoform P01116-2 G12C): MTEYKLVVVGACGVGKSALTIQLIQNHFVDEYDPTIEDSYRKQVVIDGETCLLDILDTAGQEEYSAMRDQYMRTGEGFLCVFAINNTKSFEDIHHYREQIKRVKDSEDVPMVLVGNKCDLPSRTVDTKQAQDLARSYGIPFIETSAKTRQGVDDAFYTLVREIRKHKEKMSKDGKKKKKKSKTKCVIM
# Experiment: Inhibition of KRas-mediated phosphorylation of ERK (HTRF), H358 cells
# Format: cell-based
# Test context: HTRF pERK, 3 h incubation
Readout: IC50 (nM)

Consider the following illustrative entries.
INSERT INTO assay_data (compound, observed_result) VALUES
  ('CCc1c(F)ccc2cc(O)cc(-c3ncc4c(N5CCC(C(=O)n6nc(C)cc6C)CC5)nc(OC[C@@]56CCCN5C[C@H](F)C6)nc4c3F)c12 [Example 74]', 2290),
  ('CCc1c(F)ccc2cc(O)cc(-c3ncc4c(N5CC6CCC(C5)C6C(=O)n5cccn5)nc(OC[C@@]56CCCN5C[C@H](F)C6)nc4c3F)c12 (stereo partly drawn) [Example 59]', 486),
  ('N#Cc1c(N)sc2c(F)ccc(-c3c(Cl)cc4c(N5CCC(C(=O)Oc6cccnc6)CC5)nc(OC[C@@]56CCCN5C[C@H](F)C6)nc4c3F)c12 [Example 296]', 15);

P = N#Cc1c(N)sc2c(F)ccc(-c3c(Cl)cc4c(N5CCN(C(=O)n6ccnc6)CC5)nc(OC[C@@]56CCCN5C[C@H](F)C6)nc4c3F)c12 [Example 231]
Q = CCc1c(F)ccc2cc(O)cc(-c3ncc4c(N5CC6CC(C(=O)N(C)C(C)=O)C6C5)nc(OC[C@@]56CCCN5C[C@H](F)C6)nc4c3F)c12 (stereo partly drawn) [Example 277]
R = CN(CCCC(=O)Oc1ccccc1F)c1nc(OC[C@@]23CCCN2C[C@H](F)C3)nc2c(F)c(-c3ccc(F)c4sc(N)c(C#N)c34)c(Cl)cc12 [Example 218]
Q) Exam item: list the entries in increasing order of IC50. Present the labels in the sequence the task asks for.
A) P, R, Q

* * *

# System name: KRas-mediated phosphorylation of ERK in MKN1 cells (Homo sapiens, UniProt P01116)
# Construct: pERK HTRF read-out
# Sequence (P01116 1-188 isoform P01116-2): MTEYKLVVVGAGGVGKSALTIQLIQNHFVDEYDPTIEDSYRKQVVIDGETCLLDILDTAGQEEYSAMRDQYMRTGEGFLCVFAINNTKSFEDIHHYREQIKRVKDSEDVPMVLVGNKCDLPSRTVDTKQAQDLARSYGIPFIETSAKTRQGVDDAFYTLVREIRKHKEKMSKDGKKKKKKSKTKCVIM
# Experiment: Inhibition of KRas-mediated phosphorylation of ERK (HTRF), MKN1 cells
# Format: cell-based
# Test context: MKN1 cells (KRas WT); HTRF pERK; 3 h incubation
Readout: IC50 (nM)

# example entries with known answers
INSERT INTO measurements (compound, readout, observed_result) VALUES
  ('CCc1c(F)ccc2cc(O)cc(-c3ncc4c(NC[C@@H]5C[C@H]5C(=O)n5ccc(C)n5)nc(OC[C@@]56CCCN5C[C@H](F)C6)nc4c3F)c12 [Example 158]', 'IC50', 112),
  ('CCc1c(F)ccc2cc(O)cc(-c3ncc4c(N5C[C@@H]6[C@H](C5)[C@H]6C(=O)n5ccc(C)n5)nc(OC[C@@]56CCCN5C[C@H](F)C6)nc4c3F)c12 [Example 118]', 'IC50', 5750),
  ('CCc1c(F)ccc2cc(O)cc(N3CCc4c(nc(OC[C@@]56CCCN5C[C@H](F)C6)nc4NCCCC(=O)n4ccc(C)n4)C3)c12 [Example 193]', 'IC50', 2140),
  ('CCc1c(F)ccc2cc(O)cc(-c3ncc4c(N5CCCC6CC6(C(=O)n6ccc(C)n6)CC5)nc(OC[C@@]56CCCN5C[C@H](F)C6)nc4c3F)c12 (some centres unmarked) [Example 117]', 'IC50', 333),
  ('CCc1c(F)ccc2cc(O)cc(-c3ncc4c(N5CCCCC(C(=O)n6ccc(C)n6)CC5)nc(OC[C@@]56CCCN5C/C(=C\F)C6)nc4c3F)c12 (some centres unmarked) [Example 124]', 'IC50', 93);

I = N#Cc1c(N)sc2c(F)ccc(-c3c(Cl)cc4c(N5CCC(C(=O)N6CCCC6)CC5)nc(OC[C@@]56CCCN5C[C@H](F)C6)nc4c3F)c12 [Example 246]
II = CN(CCCC(=O)N(C)c1ccncn1)c1nc(OC[C@@]23CCCN2C[C@H](F)C3)nc2c(F)c(-c3ccc(F)c4sc(N)c(C#N)c34)c(Cl)cc12 [Example 268]
III = Cc1ccn(C(=O)C2CCCCCN(c3nc(OC[C@@]45CCCN4C[C@H](F)C5)nc4c(F)c(-c5ccc(F)c6sc(N)c(C#N)c56)c(Cl)cc34)C2)n1 (some centres unmarked) [Example 173]
IV = CN(C)Cc1ccn(C(=O)C2CCCN(c3nc(OC[C@@]45CCCN4C[C@H](F)C5)nc4c(F)c(-c5ccc(F)c6sc(N)c(C#N)c56)c(Cl)cc34)CC2)n1 (some centres unmarked) [Example 205]
Q) List by increasing IC50. Hello, could you send the labels back in the order asked? Thank you.
A) I, III, II, IV

* * *

# System name: KRas G12S (Homo sapiens, UniProt P01116, G12S)
# Construct: Biotinylated KRas (corresponding to amino acids 1-169, produced at Accelegan Inc.); biotin (biotinylated); purchased Accelegan Inc
# Sequence (P01116 1-169 isoform P01116-2 G12S): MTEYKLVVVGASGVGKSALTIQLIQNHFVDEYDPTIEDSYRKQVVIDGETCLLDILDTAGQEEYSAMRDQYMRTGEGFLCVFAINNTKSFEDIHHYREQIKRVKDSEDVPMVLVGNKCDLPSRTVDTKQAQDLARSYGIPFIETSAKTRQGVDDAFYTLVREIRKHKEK
# Experiment: KRas binding assay, TR-FRET displacement of Cy5 labelled tracer
# Test context: 60-minute incubation at room temperature, 1% DMSO, pH 7.5
Readout: IC50 (nM)

INSERT INTO results (molecule, observed_result) VALUES
  ('CCc1c(F)ccc2cc(O)cc(-c3ncc4c(N(CCCC(=O)n5ccc(C)n5)C5CC5)nc(OC[C@@]56CCCN5C[C@H](F)C6)nc4c3F)c12 [Example 165]', 4);

I = CCc1c(F)ccc2cc(O)cc(-c3ncc4c(N(C)CCN(C)C(=O)n5cncn5)nc(OC[C@@]56CCCN5C[C@H](F)C6)nc4c3F)c12 [Example 223]
II = CCc1c(F)ccc2cc(O)cc(-c3ncc4c(N5CCC(C(=O)Oc6ccccc6)CC5)nc(OC[C@@]56CCCN5C[C@H](F)C6)nc4c3F)c12 [Example 39]
III = COc1cccc(OC(=O)C2CCN(c3nc(OC[C@@]45CCCN4C[C@H](F)C5)nc4c(F)c(-c5ccc(F)c6sc(N)c(C#N)c56)c(Cl)cc34)CC2)c1 [Example 244]
IV = CC(=O)N(C)C(=O)C1CCN(c2nc(OC[C@@]34CCCN3C[C@H](F)C4)nc3c(F)c(-c4ccc(F)c5sc(N)c(C#N)c45)c(Cl)cc23)CC1 [Example 254]
V = O=C(Oc1c(F)cccc1F)C1CCN(c2nc(OCC34CCCN3CCC4)nc3c(F)c(-c4cccc5cccc(F)c45)ncc23)CC1 [Example 30]
Q) Put the items in sequence by IC50, from largest down. Reply: labels, ordered per the request.
A) V, II, I, III, IV

* * *

# System name: KRas G12S (Homo sapiens, UniProt P01116, G12S)
# Construct: Biotinylated KRas (corresponding to amino acids 1-169, produced at Accelegan Inc.); biotin (biotinylated); purchased Accelegan Inc
# Experiment: KRas binding assay, TR-FRET displacement of Cy5 labelled tracer
# Test context: 60-minute incubation at room temperature, 1% DMSO, pH 7.5
Readout: IC50 (nM)

Worked examples, 5 compounds total:
INSERT INTO assay_data (compound, observed_result) VALUES
  ('C#Cc1c(F)ccc2cc(O)cc(-c3ncc4c(N5CCC(C(=O)n6ccc(C)n6)CC5)nc(OC[C@@]56CCCN5C[C@H](F)C6)nc4c3F)c12 [Example 67]', 17),
  ('CCc1c(F)ccc2cc(O)cc(-c3ncc4c(NCC56CC(C(=O)n7ccc(C)n7)(C5)C6)nc(OC[C@@]56CCCN5C[C@H](F)C6)nc4c3F)c12 [Example 92]', 17),
  ('CCc1c(F)ccc2cc(O)cc(-c3ncc4c(N5CC(CC(=O)n6ccc(C)n6)C5)nc(OC[C@@]56CCCN5C[C@H](F)C6)nc4c3F)c12 [Example 84]', 7),
  ('N#Cc1c(N)sc2c(F)ccc(-c3c(Cl)cc4c(N5CCC(C(=O)Oc6cccc(Cl)c6)CC5)nc(OC[C@@]56CCCN5C[C@H](F)C6)nc4c3F)c12 [Example 297]', 45),
  ('CCc1c(F)ccc2cc(O)cc(N3CCc4c(nc(OC[C@@]56CCCN5C[C@H](F)C6)nc4N4CCCC(C(=O)n5cccn5)CC4)C3)c12 (some centres unmarked) [Example 143]', 8);

P = CC(=O)N(C)C(=O)[C@H]1C[C@@H]2CN(c3nc(OC[C@@]45CCCN4C[C@H](F)C5)nc4c(F)c(-c5ccc(F)c6sc(N)c(C#N)c56)c(Cl)cc34)C[C@@H]2C1 (atropisomer, axis not shown; (aR)) [Example 236]
Q = N#Cc1c(N)sc2c(F)ccc(-c3c(Cl)cc4c(N5CCN(S(=O)(=O)n6cncn6)CC5)nc(OC[C@@]56CCCN5C[C@H](F)C6)nc4c3F)c12 [Example 186]
Q) Hi team, can someone confirm which has the larger IC50: P or Q ? Thanks. Mark your selection by writing its label.
A) Q

P = Cc1ccn(C(=O)C2CCCN(c3nc(OC[C@@]45CCCN4C[C@H](F)C5)nc4c(F)c(-c5ccc(F)c6sc(N)c(C#N)c56)c(Cl)cc34)CC2)n1 (some centres unmarked) [Example 130]
Q = CON(C(C)=O)C(=O)CCCN(C)c1nc(OC[C@@]23CCCN2C[C@H](F)C3)nc2c(F)c(-c3ccc(F)c4sc(N)c(C#N)c34)c(Cl)cc12 [Example 234]
R = CCc1c(F)ccc2cc(O)cc(-c3ncc4c(N5CCN(C(=O)n6ccc(C)n6)C(C)C5)nc(OC[C@@]56CCCN5C[C@H](F)C6)nc4c3F)c12 (some centres unmarked) [Example 82]
Q) Please give the order of these compounds when sorted by IC50, largest value leading. Provide the ranking by listing each label in its place in the requested order.
A) R, P, Q
